Reference source for all entries: the supplement of paper PMC9170038

System: MS2 coat protein
assay_protocol: apparent KD of MS2 coat protein; designed switch direction (-1 OFF switch, 1 ON switch): 1; higher = weaker reporter binding
test_context: input ligand: microRNA oligo, concentration not stated
Decision: apparent KD of MS2 coat protein compared against 200 nM; not below it gives label 1, below it gives label 0.

Consider the following illustrative entries.
IN: Is it the case that AAAAAACAUGAGGAUCACCCAUGUCAAAAGACAUGAGGAUAUGUACAGACUUCGGUCUGUACAGAAGGCAUGAAAA [salish99_ss1_r3_093] (Eterna round: R96, puzzle: Same State 1) has apparent KD of MS2 coat protein reaching or exceeding 200 nM?
OUT: label 1

IN: Also GCCGGCUGGUGAGGAUAUGGCGCCUUGUUGGUGCCAGAAGGCAUGUCAAUUGACAUGAGGAUCACCCAUGUGUUGUCGUUGGCG [salish99_SSNG1_r04_611] (Eterna round: R96, puzzle: Same State NG 1) ?
OUT: label 0

IN: Also GUGGUGAAUUAAGGAUAUCGAGUCUAGAUGUUAAACAUGAGGAUCACCCAUGUGGGUUGCGGUGUCGAGAAGGUAAUUUACGGG [salish99_SSNG2_r04_508] (Eterna round: R96, puzzle: Same State NG 2) ?
OUT: label 0

IN: Also AGCUAAAACGAAGGAUAUACAAACAUGAGGAUCACCCAUGUAUACAUGAUUUAUUGUGAUCACAUGUAGAAGGUCGUACUAACA [SameState NG2 #19] (Eterna round: R96, puzzle: Same State NG 2) ?
OUT: label 1

New cases:
IN: Is it the case that GGAGCCGGCACCGAGGAUAUUCAUAUUAAAACAUGAGGAUCACCCAUGUAGGCCAGAAGGCCUUGGGAGAAGGCGGACCGGCUCG [Xeonanis - 4] (Eterna round: R96, puzzle: Same State 2) has apparent KD of MS2 coat protein reaching or exceeding 200 nM?
OUT: label 0
